- System: IGROV1 ovarian
- MEASUREMENT PROTOCOL: NCI-60 one-dose screen, 48 h
- EXPERIMENTAL SETUP: 10 µM unless noted
This is part of a sample that, as a whole, favours compounds with a hit. Of some 83,000 tested, about 20% had one in any assay. Activity calls are given as the source filed them. The calls were made as follows: active = growth percent below 10; inactive = the rest.
The reply should name one outcome from class 1 for active, class 0 for inactive

Field: outcome | Entry: CN1C(=O)/C(=C\C(=O)c2cc3ccccc3oc2=O)c2ccccc21 class 0

Input COc1ccc(-c2nnc3c(/C=C/c4ccc(Br)cc4)nc4ccccc4n23)cc1 class 0

Input COc1ccc(Nc2ncnc3sc4c(c23)CCN(Cc2ccccc2)C4)cc1 class 0

Input COc1cc(C2CC(c3ccc(F)cc3)=Nc3c(N)nc(N)nc3N2)ccc1Oc1nc(Nc2ccc(F)cc2)nc(N(C)C)n1 (stereo not given) class 0

Input Cc1ccc(O)cc1Nc1nc(SCCN2CCOCC2)nc2c1cnn2CC(Cl)c1ccc(Br)cc1 (stereo not given) class 1

----------
- Test system: SK-OV-3 ovarian
- MEASUREMENT PROTOCOL: NCI-60 one-dose screen, 48 h
- EXPERIMENTAL SETUP: 10 µM unless noted
- Protocol: Growth inhibition of the SK-OV-3 human tumor cell line is measured as a screen for anti-cancer activity. Cells are grown in 96 well plates and exposed to the test compound for 48 hours. Compounds are tested at a single concentration, which is 10^-5 M for most compounds. The reported endpoint is percent growth (GI% or GIPRCNT), where numbers from 0 - 100% represent growth inhibition, and numbers from -100% - 0 represent cell death. For example, a value of 40 represents 60% growth inhibition. […]
This is part of a sample that, as a whole, favours compounds with a hit. Of some 83,000 tested, about 20% had one in any assay. Activity calls are given as the source filed them. How the source made its calls: active means growth percent below 10; inactive means the rest.
The reply should name one outcome from true (1) (active), false (0) (inactive)

Field: outcome | Entry: COc1ccc2[nH]c(O)c(N=Nc3nc(-c4ccc(Br)cc4)cs3)c2c1 true (1)

Input O=C1/C(=C/c2cccc3c2OCO3)Cc2c(F)cc(Br)cc21 false (0)

Input Cc1nc(N)ncc1-c1ccc2ncnc(N3CCc4cc(F)c(Cl)cc43)c2c1 false (0)

Input CCCCCCCCc1ccc(C(=O)Nc2ccc(C)cc2C(=O)O)cc1 false (0)

Input O=C1c2cccc3c(N4CCN(Cc5ccccc5)CC4)ccc(c23)C(=O)N1c1cccc(-c2nn(-c3ccccc3)cc2-c2nc3ccccc3s2)c1 false (0)

Input CN1C(=O)/C(=C/c2ccco2)S/C1=N/c1nccs1 false (0)

Input CC1=C(C(=O)OCc2ccccc2)C(c2cccc3ccccc23)n2c(nc3ccccc32)N1 (configuration not stated) false (0)

Input c1ccc(CSc2nnc(-c3ccc4nc(-c5ccccc5)[nH]c4c3)o2)cc1 false (0)

Input COc1ccc(NC(=O)Nc2nc3ccc([N+](=O)[O-])cc3s2)cc1 false (0)

Input Cc1nn(-c2ccccc2)c2ncn(CC(=O)N/N=C/c3ccccc3O)c(=O)c12 false (0)

Input Oc1cncc(-c2ccc3ncnc(N4CCc5cc(F)c(Cl)cc54)c3c2)c1 false (0)

Input Cn1ncc2c(N)nc(Oc3ccccc3-c3ccccc3)nc21 false (0)

Input Fc1cccc(CNc2nc(SCCN3CCOCC3)nc3c2cnn3CC(Cl)c2ccc(Br)cc2)c1 (configuration not stated) false (0)

Input COC(=O)c1cccc(Oc2ccc(NC(=O)Nc3cc(C(F)(F)F)ccc3F)cc2)c1 false (0)

Input COc1ccc2[nH]c(=O)c(CSc3ccccc3Nc3nccc(-c4ccc5c(c4)OCO5)n3)cc2c1 false (0)

Input COC(=O)c1ccc(-c2c(-c3ccccc3)c(F)c3oc(C(=O)OC)c(N)c3c2-c2ccccc2)cc1 false (0)

Input N#Cc1c(NC(=O)N2CCOCC2)n(-c2ccc(OC(F)(F)F)cc2)c2cc(F)ccc12 false (0)

Input Cc1cccc(/C=C/c2ccc(NC(=S)NCCCCN(C)C)cc2)c1 true (1)

Input Cc1ccc(S(=O)(=O)Nc2ccc(-c3ccc4c(c3)NC(=O)/C4=C\c3ccc[nH]3)cc2)cc1 false (0)

Input O=Cc1cncc(-c2ccc3ncnc(N4CCc5cc(F)c(Cl)cc54)c3c2)c1 true (1)

Input COc1cc(/C=C/C(=O)c2ccc(S(=O)(=O)NCCNc3nc(N(C)C)nc(N4CCOCC4)n3)cc2)cc(OC)c1OC false (0)

Input COc1ccc(OC)c(Cn2cc(C#N)c(N)c2C(=O)c2ccc(Br)cc2)c1 false (0)

Input Cc1ccc(C2CC(c3ccc(NC(=S)Nc4ccccc4)cc3)=NN2c2ccc(S(N)(=O)=O)cc2)cc1 (configuration not stated) false (0)

Input COc1ccc(-c2nc3ccc(-c4nnc(SCc5ccccc5)o4)cc3[nH]2)cc1 true (1)

Input N/C(=N\c1nc2ccccc2s1)NC(=O)Nc1ccccc1F true (1)

Input COc1ccc(N=Nc2c(N)nn3c(-c4ccc(F)cc4)ccnc23)cc1 false (0)

Input COc1ccc(-c2nnc3c(/C=C/c4ccc(Br)cc4)nc4ccccc4n23)cc1 false (0)

Input N/C(=N\c1nc2ccccc2s1)NC(=O)Nc1ccccc1[N+](=O)[O-] true (1)

Input CN1CCN(c2ccc3c4c(cccc24)C(=O)N(c2cccc(-c4nn(-c5ccccc5)cc4-c4nc5ccccc5s4)c2)C3=O)CC1 false (0)

Input CC1=C(C(=O)OC(C)C)C(c2ccc(O)cc2)NC(=O)N1 (configuration not stated) false (0)

Input O=C(NC(=S)N1CCN(c2ncnc3c2cnn3-c2ccccc2)CC1)c1ccc(F)cc1 false (0)

Input Cc1cc(C2(c3cc(C)c(OCC(O)CNc4c(C)n(C)n(-c5ccccc5)c4=O)cc3C(C)C)OC(=O)c3ccccc32)c(C(C)C)cc1OCC(O)CNc1c(C)n(C)n(-c2ccccc2)c1=O (configuration not stated) false (0)

Input COc1ccc2[nH]c(O)c(N=Nc3nc(-c4ccc(Cl)cc4)cs3)c2c1 true (1)

Input O=C(c1ccc(Cl)cc1)C1[C@H](c2ccccc2Cl)[C@@H](c2ccccc2)NC12C(=O)Nc1ccc(Br)cc12 (some centres not stated) true (1)

Input CC(C)(C)C(=O)C1CC(C#N)=C2C=Cc3c(ccc4ccccc34)N21 (configuration not stated) false (0)

Input O=c1[nH]c2ccccc2cc1COc1ccc(Nc2nccc(-c3ccc(Cl)cc3)n2)cc1 false (0)

Input C[C@@H]1CN(c2ccc3ncc(C#Cc4cncc(C(=O)Nc5ccc(CN6CCN(C)CC6)c(C(F)(F)F)c5)c4)n3n2)C[C@@H](C)O1 true (1)

----------
- System: HOP-62 NSCLC
- MEASUREMENT PROTOCOL: NCI-60 one-dose screen, 48 h (100 = growth as untreated, 0 = no growth, -100 = all killed)
- EXPERIMENTAL SETUP: 10 µM unless noted
About 83,000 compounds went through this panel and 20% of them were active in at least one assay; those are over-represented in the sample as a whole.
Please provide measured growth for the entries that follow.
Entry rule: numbers only, all in %.

Please report the recorded growth for CCOc1ccccc1[C@H]1C(C(=O)c2ccc(Cl)cc2)C2(N[C@@H]1c1ccccc1)C(=O)Nc1ccc(Cl)cc12 (some centres not stated) . 42.6

Input CN1CCN(C(=O)CCN(C(=O)Oc2cc3c(c4ccccc24)[C@H](CCl)CN3C(=O)c2cc3cc(OCCCN4CCC4)ccc3[nH]2)[C@H]2CCSSC2)CC1 -77.4

Input CN1CCN(C(=O)Oc2cc3c(c4ccccc24)[C@H](CCl)CN3C(=O)c2cc3cc(OCCCN4CCC4)ccc3[nH]2)[C@H]2CSSC[C@H]21 -37.8

Input COc1c2c(c(Br)c3c1C(CCc1ccccc1)N(C)CC3)OCO2 (configuration not stated) 68.2

Input O=C(/C=C1\C(=O)N(Cc2ccccc2)c2ccccc21)c1cc2ccccc2oc1=O 102

Input COc1ccc(-c2nc3ccc(-c4nnc(SCc5ccccc5)o4)cc3[nH]2)cc1 -72.7

Input COc1c2c(cc3c1C(CCc1ccccc1)N(C)CC3)OCO2 (configuration not stated) 36.6

Input Cc1cc(C(NC(=O)C2CC3(CC(Nc4cccc5c4C(=O)N(C4CCC(=O)NC4=O)C5=O)C3)C2)c2ccc3c(c2)OC(F)(F)O3)c(O)c2ncccc12 (configuration not stated) -10.9

Input CCCn1c(NC(=O)c2cccc(C(N)=O)c2)nc2ccc(CN3CCCCC3)cc21 105

Input N#Cc1c(-c2ccc(F)cc2)nc(SCc2ccccc2)nc1N1CCNCC1 -78.8

Input O=C(c1ccc(O)cc1)C1[C@H](c2ccc(Cl)cc2)[C@@H](c2ccccc2)NC12C(=O)Nc1ccc(Br)cc12 (some centres not stated) -28.9

Input COc1cc2cc(C(=O)N3C[C@@H](CCl)c4c3cc(OC(=O)N(C)CCSSCCN3CCOCC3)c3ccccc43)[nH]c2c(OC)c1OC -49.4

Input CN1C(=O)/C(=C\C(=O)c2cc3ccccc3oc2=O)c2ccccc21 54.4

Input COc1cc(C=O)ccc1OC(=O)c1cc(-c2ccc(C)cc2)n(-c2ccc(S(C)(=O)=O)cc2)n1 102

Input CCC1(OC(=O)c2ccccc2SSCCOC(=O)CCCCC2SCC3NC(=O)NC32)C(=O)OCc2c1cc1n(c2=O)Cc2cc3ccccc3nc2-1 (configuration not stated) 39.4

Input CCOc1ccccc1[C@H]1C(C(=O)c2ccc(Cl)cc2)C2(N[C@@H]1c1ccccc1)C(=O)Nc1ccc(Br)cc12 (some centres not stated) 7.94

Input O=C(Nc1ccc(F)cc1)Nc1nc2ccc([N+](=O)[O-])cc2s1 -0.8
